We begin with a simple list: items and their reported IC50.
Biological target: CDK9/CycT1 (Homo sapiens)
Sequence (P50750 whole entry): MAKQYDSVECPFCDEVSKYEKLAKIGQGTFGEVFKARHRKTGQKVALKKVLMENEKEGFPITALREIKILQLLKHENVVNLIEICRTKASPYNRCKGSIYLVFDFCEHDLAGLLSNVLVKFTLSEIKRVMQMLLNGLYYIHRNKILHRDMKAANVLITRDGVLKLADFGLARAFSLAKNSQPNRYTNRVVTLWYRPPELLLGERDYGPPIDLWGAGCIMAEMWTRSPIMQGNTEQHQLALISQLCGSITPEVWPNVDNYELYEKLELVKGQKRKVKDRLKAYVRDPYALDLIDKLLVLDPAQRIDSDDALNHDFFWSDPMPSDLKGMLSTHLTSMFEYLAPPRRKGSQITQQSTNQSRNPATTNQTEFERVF
Sequence (O60563 whole entry partner): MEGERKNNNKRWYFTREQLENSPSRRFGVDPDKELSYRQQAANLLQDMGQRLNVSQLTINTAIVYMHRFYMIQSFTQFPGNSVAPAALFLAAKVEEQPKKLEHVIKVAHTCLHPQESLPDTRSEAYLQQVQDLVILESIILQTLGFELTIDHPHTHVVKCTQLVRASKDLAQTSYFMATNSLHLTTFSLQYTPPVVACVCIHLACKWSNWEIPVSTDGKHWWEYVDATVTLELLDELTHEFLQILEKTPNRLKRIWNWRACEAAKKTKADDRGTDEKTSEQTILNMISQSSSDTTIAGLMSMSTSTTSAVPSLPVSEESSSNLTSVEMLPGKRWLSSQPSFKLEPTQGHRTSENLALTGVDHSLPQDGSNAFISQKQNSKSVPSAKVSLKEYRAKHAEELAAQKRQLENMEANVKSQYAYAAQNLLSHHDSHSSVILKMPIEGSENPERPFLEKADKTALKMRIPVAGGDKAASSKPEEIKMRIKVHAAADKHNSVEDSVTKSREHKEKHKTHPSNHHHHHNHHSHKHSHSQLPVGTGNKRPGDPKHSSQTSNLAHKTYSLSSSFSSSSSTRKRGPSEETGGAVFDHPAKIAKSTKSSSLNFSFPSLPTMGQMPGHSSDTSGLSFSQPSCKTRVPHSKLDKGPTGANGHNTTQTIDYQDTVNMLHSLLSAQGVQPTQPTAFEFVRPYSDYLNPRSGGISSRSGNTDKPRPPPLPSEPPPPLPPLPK
Assay: In vitro CDK9/cyclin T1 enzyme inhibition assay
Settings: IC50 (µM) CDK9/CycT1, dose-response curves; repeated in Table 6
// note: answer is a bare numeric in µM

>  <given_smiles>
N#Cc1cnc(Nc2cccc(S(N)(=O)=O)c2)nc1-c1ccc(F)cc1

>  <value_type>
IC50

>  <recorded_result>
0.967

$$$$
>  <given_smiles>
N#Cc1cnc(Nc2cccc(S(N)(=O)=O)c2)nc1-c1ccc(Cl)cc1

>  <value_type>
IC50

>  <recorded_result>
0.613

$$$$
>  <given_smiles>
NS(=O)(=O)c1cccc(Nc2nccc(-c3ccncc3)n2)c1

>  <value_type>
IC50

>  <recorded_result>
1.67

$$$$
>  <given_smiles>
NS(=O)(=O)c1cccc(Nc2nccc(-c3ccccc3)n2)c1

>  <value_type>
IC50

>  <recorded_result>
0.449

$$$$
>  <given_smiles>
N#Cc1cnc(Nc2ccccc2)nc1-c1ccccc1

>  <value_type>
IC50

>  <recorded_result>
1.96

$$$$

Please look at the following molecule next.
(Q) Returns the measured IC50 for the input molecule. Input: `NS(=O)(=O)c1cccc(Nc2nccc(-c3ccc([N+](=O)[O-])cc3)n2)c1`
(A) 1.74
